Experiment description: Cytotoxicity against African green monkey Vero cells
Format: toxicity, cell-based
Condition context: African green monkey (Chlorocebus sabaeus)
Value type: IC50 (µM)
Quick reminder: number only, in µM, skip the unit.

IC50 for C/C=C/C[C@@H]1NC(=O)[C@H](CC(C)C)N2C(=O)[C@H](CC(C)[C@H]2OC)N(C)C(=O)[C@H](C)NC(=O)[C@H](Cc2ccc(OC)c([N+](=O)[O-])c2)NC(=O)[C@H](CC(C)C)N(C)C(=O)[C@H](Cc2cn(C(C)(C)[C@H]3CO3)c3ccccc23)N(C)C1=O (some centres not stated) ?
90

---

Experiment description: Selectivity index, ratio of IC50 for cytotoxicity against African green monkey Vero cells to MIC for antimycobacterial activity against Mycobacterium tuberculosis H37Rv ATCC 27294
Assay type: toxicity, cell-based
Condition context: read-out: Selectivity Index
Value type: selectivity ratio
// no unit, no text: just the number

selectivity ratio for C/C=C/C[C@@H]1NC(=O)[C@H](CC(C)C)N2C(=O)[C@H](CC(C)[C@H]2OC)N(C)C(=O)[C@H](C)NC(=O)[C@H](Cc2ccc(OC)c([N+](=O)[O-])c2)NC(=O)[C@H](CC(C)C)N(C)C(=O)[C@H](Cc2cn(C(C)(C)[C@H]3CO3)c3ccccc23)NC1=O (some centres not stated) ?
17000

The origin of these recorded values is ChEMBL document CHEMBL6177961.
